tested on: Saccharomyces cerevisiae; experiment: protein stability index of tFT-peptide fusion (C-terminal peptide) (PSI (0-1 scale)); higher = more stable (slower turnover); settings: genetic background: wild type; temperature: 30 C;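 further: PSI is a weighted mean of sequencing reads over stability bins, variants kept only with over 10 reads, mCherry proximal and sfGFP distal, peptide attached via GGGS linker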
Consider the reported protein stability index of an entry and match it to a band in group A: < 0.6; group B: ≥ 0.6 and < 0.7; group C: ≥ 0.7

Worked cases, answers included:
[[record]]
construct_sequence = "PPPRSPLFSLPP"
class_assignment = "group B"

[[record]]
construct_sequence = "PPSPPSLRSSPP"
class_assignment = "group C"

[[record]]
construct_sequence = "CSRGRNSDNNLI"
class_assignment = "group B"

[[record]]
construct_sequence = "GGGDFDTLWDSR"
class_assignment = "group C"


Problem: Place this sequence in its band: WCLRVRASGRGG
Solution: group C

Problem: Classify this sequence: NFSALECKVQLT
Solution: group C

Problem: Class label required: ILSSPGLLLFRL
Solution: group A

Problem: Band assignment needed for RPPPLPPRPSPP please.
Solution: group C

----------
test system: Saccharomyces cerevisiae; test: protein stability index of tFT-peptide fusion (C-terminal peptide) (PSI (0-1 scale)); higher = more stable (slower turnover); details: genetic background: cdc34-1; temperature: 37 C
Param threshold (0.6) applies to protein stability index; output true when value >= threshold, false when value < threshold.

Use the examples below as a reference point.
[[record]]
construct_sequence = "GVLHSKGPWFSG"
class_assignment = "true"

[[record]]
construct_sequence = "GWVVWLTGCLVF"
class_assignment = "false"

[[record]]
construct_sequence = "VYCLFLPLGVAF"
class_assignment = "false"

[[record]]
construct_sequence = "LFYVCPFVCFLC"
class_assignment = "false"

[[record]]
construct_sequence = "YFNGLLPLVLVF"
class_assignment = "false"


Pending sequence:
Problem: Tell me whether protein stability index is at least 0.6 here: GFFFWTMCFWVV
Solution: false

----------
system: Saccharomyces cerevisiae; assay: protein stability index of tFT-peptide fusion (C-terminal peptide) (PSI (0-1 scale)); higher = more stable (slower turnover); settings: genetic background: wild type; temperature: 30 C
Listing of entries alongside the reported protein stability index.
Please reply with the value in numeric form only.

The following sequences have reported results that may help.
[[record]]
construct_sequence = "GRGGGGGAVGEW"
measured_number = 0.683

[[record]]
construct_sequence = "YPSTPPPPPHPA"
measured_number = 0.687

[[record]]
construct_sequence = "MGAGGGLCGMWA"
measured_number = 0.705

[[record]]
construct_sequence = "LVGHENIVVRRA"
measured_number = 0.72

[[record]]
construct_sequence = "SSLPDSPLNRER"
measured_number = 0.693

[[record]]
construct_sequence = "SSLLFVMSYGLL"
measured_number = 0.661

[[record]]
construct_sequence = "GVEAGMGRTLWL"
measured_number = 0.792

[[record]]
construct_sequence = "SHPHLSSPPSRP"
measured_number = 0.678

[[record]]
construct_sequence = "LAAVCFYPFCCF"
measured_number = 0.641

[[record]]
construct_sequence = "TFSVNLGAASAK"
measured_number = 0.662


Problem: Item SYGSLFCSHLDG with Saccharomyces cerevisiae - protein stability index?
Solution: 0.683

Problem: Give protein stability index (Saccharomyces cerevisiae) of the following sequence: SICRERRLSFYL
Solution: 0.728

Problem: State its protein stability index on Saccharomyces cerevisiae: IKRIDQYEKQNK
Solution: 0.659

Problem: Which measured protein stability index belongs to VWFGAGSYSFLC , tested on Saccharomyces cerevisiae?
Solution: 0.568

Problem: Provide the documented protein stability index with Saccharomyces cerevisiae as the system for PPPPPLPALPLL
Solution: 0.84

Problem: // fetch Saccharomyces cerevisiae protein stability index for ALSFISYPFPLL
Solution: 0.642

Problem: # value lookup — system Saccharomyces cerevisiae, readout protein stability index, item PSNDNTMIPILE
Solution: 0.656

Problem: Form field - read-out: protein stability index; system: Saccharomyces cerevisiae; submitted item: GLIRGFLRYPGM
Solution: 0.691

Problem: Observed protein stability index on Saccharomyces cerevisiae for PFSRIFSPLSLL , please.
Solution: 0.68

Problem: Test system Saccharomyces cerevisiae; read-out protein stability index; what value for SCEIDKMYLPLR ?
Solution: 0.701

Problem: Provide the documented protein stability index with Saccharomyces cerevisiae as the system for PVPLLPLSFSLL
Solution: 0.736

Problem: Param readout= protein stability index; system= Saccharomyces cerevisiae; entry= GVSAGGAGLGGS ; returns value.
Solution: 0.773

Problem: Please state recorded protein stability index (tested on Saccharomyces cerevisiae) of LFFVVFFLLFLL
Solution: 0.411

Problem: Form field - read-out: protein stability index; system: Saccharomyces cerevisiae; submitted item: GLVVGGLRPKRV
Solution: 0.68

Problem: API: value(readout=protein stability index, system=Saccharomyces cerevisiae) for record PPRPLLPTPSPL
Solution: 0.7

Problem: Recorded protein stability index for QRFVKIRGLEKI with Saccharomyces cerevisiae, please?
Solution: 0.693

Problem: // map VQTLYSQLPALR to recorded protein stability index (system: Saccharomyces cerevisiae)
Solution: 0.78

Problem: Look up protein stability index with Saccharomyces cerevisiae for this sequence: LLFRSPPPTVHS
Solution: 0.769

Problem: Missing value: protein stability index, Saccharomyces cerevisiae, entry QTHRFLHVGKSL . Fill in?
Solution: 0.621

Problem: Please state recorded protein stability index (tested on Saccharomyces cerevisiae) of DVHGETRGYGIQ
Solution: 0.665

Problem: Requested read-out protein stability index, target or system Saccharomyces cerevisiae, entry LVCRYLGLRCSD
Solution: 0.597

Problem: # query: protein stability index | item VFTCTGVLFGGM | system: Saccharomyces cerevisiae
Solution: 0.768

Problem: Give Saccharomyces cerevisiae protein stability index for KKKKYKKKRKIK
Solution: 0.74

Problem: Param readout = protein stability index; param system = Saccharomyces cerevisiae; param query = VPRPLPPSPLLV ; response: value
Solution: 0.644
